Data credit: patent US20260116991A1

Target: T1, polypeptide GC3pep (human)
T1 construct: also called membrane proximal polypeptide GC3pep
T1 peptide: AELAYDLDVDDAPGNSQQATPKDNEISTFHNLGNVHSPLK
Test: ELISA, GC3pep coated, antibody 100 nM;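 further: detection with an HRP-conjugated secondary antibody and TMB substrate, color reaction stopped with HCl before absorbance reading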
assay.metric: OD450 nm
Provide a numeric answer, followed by its unit.

* F4.18.4 (antibody, human IgG1, kappa, V domains shown, human-murine chimeric antibody) VH: QVQLHQSGAEMAKPGASVNLSCKTSGFTFTDYGISWVKQRTRQGLEWIGDIYPRHINIYYNEKFKDKATLTADRSSSTAYMELRSMTSEDSAVYFCARRGTTGRGALDYWGQGTSLTVSS VL: DILLTQSPAILSVSPGERVSFSCRASQSIGTSIHWYQQRTNGSPRLLIKYAFESISGIPSRFGGSGSRTDFTLTINSVESEDIADYYCQQTYNWPYTFGGGTKLEIKR | 0.06 OD450 nm
* F1.145.22 (antibody, human IgG1, kappa, V domains shown, human-murine chimeric antibody) VH: QVQLQQSGTDLARPGASVKLSCKASGYTFTSFGISWVKQRTGQGLEWIGEIYPRSGSPYYNEKFTGKATLTADKSSSTAYMELRSLTSEDSAVYFCAKDFGSSYVFDYWGQGTALTVSS VL: DIQMTQSPASLSASVGETVTITCRASENIYSYLTWYQQKQGKSPQLLVYNAKTLAEGVPSRFSGSGSGTQFSLKINSLQPEDFGTYYCQHHYGTPPTFGTGTKLDLKR | 0.11 OD450 nm

Task: Would you mind telling me what OD450 nm value was observed for F2.55.11 (antibody, human IgG1, kappa, V domains shown, human-murine chimeric antibody) VH: EVKLVESGGGLVKPGGSLKLSCAASGLTFSTCTMSWVRQTPAKRLEWVATISSGGGNTYYPDSVKGRFTISRDNARNTLYLQMSSLRSEDTAMYYCVRLYYDGSPYAMDYWGQGTSVTVSS VL: DIQMTQTTSSLSASLGDRVTISCRASQDISNHLNWYQQKPDGTVKLLIYYTSRLHSGVPSRFSGSGSGTDYSLTISNLEQEDIATYFCQQDSKPPPTFGSGTKLEIKR ?
Output: 2.85 OD450 nm
